Data origin, for the record: PubChem BioAssay (NCI)

- Tested on: DU-145 prostate
- test_name: NCI tumour cell line growth inhibition, 48 h; in the data active = GI50 below about 0.43 µM; inactive = the rest
Use one of these outcomes when replying: active, inactive

Sample answers from the record:
- molecule: "COc1cc2c3c(n(CCCCN)c(=O)c2cc1OC)-c1cc2c(cc1C3=O)OCO2"
  class_name: "active"
- molecule: "c1csc(-c2cn3nc(-c4c[nH]c5ccccc45)sc3n2)c1"
  class_name: "inactive"
- molecule: "C=CCC1(O)c2ccccc2C(=O)c2c(NCCN(CC(=O)OCC)CC(=O)OCC)cccc21 (stereo not drawn)"
  class_name: "inactive"
- molecule: "Cc1cc(O)c(C2=NN(c3ccc(S(N)(=O)=O)cc3)C(c3ccccc3Cl)C2)cc1Cl (stereo not drawn)"
  class_name: "inactive"
- molecule: "C[C@]12CCc3sc(NCCc4ccccc4)nc3C1=CC[C@@H]1[C@@H]2CC[C@]2(C)C(=O)CC[C@@H]12"
  class_name: "inactive"
- molecule: "CCCCC[C@H]1C/C=C2/C(=O)C=C[C@@H]2C/C=C\\CCCC(=O)O[C@@H](CCCCC)C/C=C2/C(=O)C=C[C@@H]2C/C=C\\CCCC(=O)O1"
  class_name: "active"
- molecule: "CNCCCn1c2c(c3ccc([N+](=O)[O-])cc3c1=O)C(=O)c1cc(OC)cnc1-2"
  class_name: "active"
- molecule: "CC1OC(n2c3ccccc3c3c4c(c5c6ccccc6[nH]c5c32)C(=O)N(CCN[C@@H]2CCC[C@H]2N)C4=O)CC(O)C1O (stereo partly drawn)"
  class_name: "inactive"
- molecule: "CCCCCCCCC/C=C/C=C/C(=O)NCC(=O)NC1C(O)C(O)C(Nc2ncnc3nc[nH]c23)OC1C(O)CO (stereo not drawn)"
  class_name: "active"
- molecule: "CCC(C)[C@H]1O[C@]2(C=C[C@@H]1C)C[C@@H]1C[C@@H](C/C=C(\\C)[C@@H](OC3C[C@H](OC)C(O[C@H]4C[C@H](OC)[C@@H](O)[C@H](C)O4)[C@H](C)O3)[C@@H](C)/C=C/C=C3\\CO[C@@H]4[C@H](O)C(C)=C[C@@H](C(=O)O1)[C@]34O)O2 (stereo partly drawn)"
  class_name: "inactive"

Ask: I'd appreciate the recorded outcome for COc1cccc(C2=C(c3c(C)n(C)c4ccccc34)C(=O)NC2=O)c1 from this test.
Result: inactive

Ask: Identify the outcome logged in this assay for the molecule shown: COc1cccc2c1ccc1nc3cccc(C(=O)N[C@H](C)CN(C)C)c3nc12
Result: active

Ask: What classification did C=C1/C(=C\C=C2/CCC[C@]3(C)[C@@H]([C@H](C)CCCC(C)(C)O)CC[C@@H]23)C[C@@H](OC(=O)CBr)C[C@@H]1O end up with in this test?
Result: inactive

Ask: Which result was noted for this molecule in the test: Nc1nc(N)c2nc(CNc3ccc(C(=O)NC(CC(=O)O)C(=O)O)cc3)cnc2n1 (stereo not drawn)
Result: inactive

Ask: Test call, this molecule: CCn1cc(C(=O)N/N=C/c2ccccc2)c(=O)c2cc(F)c(N3CCNC(C)C3)c(F)c21 (stereo not drawn)
Result: inactive

###

- Tested on: OVCAR-4 ovarian
- test_name: NCI tumour cell line growth inhibition, 48 h
measured_attribute: TGI (µM)
Answers are plain numbers, in µM.

Here are 5 compounds together with their reported answers.
- compound: "CC(=O)C(=Cc1ccc(C=C(C(C)=O)C(C)=O)cc1)C(C)=O"
  experimental_system: "OVCAR-4 ovarian"
  measure_unit: "µM"
  TGI: 6.76
- compound: "CC(C)(C)c1cc(C2=NNC(c3ccccc3)C2)cc(C(C)(C)C)c1O (stereo not given)"
  experimental_system: "OVCAR-4 ovarian"
  measure_unit: "µM"
  TGI: 33.2
- compound: "COC1=CC(c2ccc[nH]2)=N/C1=C\\c1[nH]c(C)c(C(=O)CCCCC(=O)NC(C)(C)C)c1C"
  experimental_system: "OVCAR-4 ovarian"
  measure_unit: "µM"
  TGI: 6.29
- compound: "CCCCCCCCCCCCCCCCOCC(CC(F)(F)P(=O)(OCC)OCC)OC(C)=O (stereo not given)"
  experimental_system: "OVCAR-4 ovarian"
  measure_unit: "µM"
  TGI: 29.3
- compound: "NCCSC(c1ccccc1)c1ccccc1"
  experimental_system: "OVCAR-4 ovarian"
  measure_unit: "µM"
  TGI: 46.8

I would be grateful if you could provide TGI for each of the following entries.
1. Cc1cc(O)c(C2=NN(c3ccc(S(N)(=O)=O)cc3)C(c3ccccc3Cl)C2)cc1Cl (stereo not given)
2. CC(C)C1=CC23CCC4C(C)(C(=O)O)CCCC4(C)C2CC1C1C(=O)N(c2ccccc2N2C(=O)C4C5CC6C7(C)CCCC(C)(C(=O)O)C7CCC6(C=C5C(C)C)C4C2=O)C(=O)C13 (stereo not given)
3. CC(=O)C1=C(C)N(c2ccc(C)cc2)C2(O)C=CC(=O)C3C(=O)N(c4ccccc4)C(=O)C132 (stereo not given)
4. O=C1CSC(c2ccc([N+](=O)[O-])cc2)N1c1ccc(-n2c(-c3ccccc3)nc3ccccc3c2=O)cc1 (stereo not given)
5. NC(=O)c1ccccc1Nc1ccc2nnc(-c3ccncc3)n2n1

Result:
1. 8.48
2. 38.8
3. 41.2
4. 95.7
5. 30.5

Ask: Request the reported TGI associated with O=C(N/C(=C/c1ccc(Cl)cc1Cl)c1nc2ccccc2s1)c1ccccc1
Result: 33.7
